Measurement Label: IC50 (nM)
Record the value in nM, omitting the unit from your answer.

QUERY: Provide IC50, recorded with Estrogen receptor (Homo sapiens), of CC1(c2ccc(OCCN3CCCC3)cc2)c2ccc(O)cc2CCN1c1ccccc1 (stereo not given)
Sequence (P03372 whole entry): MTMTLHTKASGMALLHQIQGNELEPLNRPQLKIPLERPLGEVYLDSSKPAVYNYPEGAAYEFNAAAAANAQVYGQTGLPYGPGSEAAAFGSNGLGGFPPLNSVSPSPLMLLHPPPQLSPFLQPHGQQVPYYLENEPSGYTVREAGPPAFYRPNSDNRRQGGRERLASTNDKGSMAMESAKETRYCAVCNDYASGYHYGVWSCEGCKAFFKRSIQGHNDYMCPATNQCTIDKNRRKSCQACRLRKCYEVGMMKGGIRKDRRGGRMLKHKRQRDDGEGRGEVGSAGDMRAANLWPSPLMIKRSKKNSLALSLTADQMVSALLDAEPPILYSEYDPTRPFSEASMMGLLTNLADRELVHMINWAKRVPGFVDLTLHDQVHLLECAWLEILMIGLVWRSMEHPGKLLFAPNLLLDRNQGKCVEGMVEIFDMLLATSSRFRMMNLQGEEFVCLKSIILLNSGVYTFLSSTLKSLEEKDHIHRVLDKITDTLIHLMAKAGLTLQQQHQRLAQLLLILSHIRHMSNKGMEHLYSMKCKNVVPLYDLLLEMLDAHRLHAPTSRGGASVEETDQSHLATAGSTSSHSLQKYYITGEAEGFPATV
RESULT: 38

QUERY: System Estrogen receptor (Homo sapiens). Read-out IC50. Item CC1(c2ccc(OCCN3CCCCC3)cc2)c2ccc(O)cc2CCN1c1ccccc1 (stereo not given) . Report value.
RESULT: 29

QUERY: Give IC50 only, for Cc1ccc(N2CCc3cc(O)ccc3C2(C)c2ccc(OCCN3CCCC3)cc2)cc1 (stereo not given) , using Estrogen receptor (Homo sapiens) data.
RESULT: 31

QUERY: Give the observed IC50 of Cc1ccc(N2CCc3cc(O)ccc3C2(C)c2ccc(OCCN3CCCCC3)cc2)cc1 (stereo not given) for Estrogen receptor (Homo sapiens).
RESULT: 28

QUERY: Retrieve IC50 on Estrogen receptor (Homo sapiens); query CC1(c2ccc(OCCN3CCCCC3)cc2)c2ccc(O)cc2CCN1c1cccc(Cl)c1 (stereo not given)
RESULT: 49

QUERY: Look up and report measured IC50 (Estrogen receptor (Homo sapiens)) for the following compound: CC1(c2ccc(OCCN3CCCC3)cc2)c2ccc(O)cc2CCN1c1ccc(Cl)cc1 (stereo not given)
RESULT: 27

QUERY: Answer with IC50 of CC1(c2ccc(OCCN3CCCCC3)cc2)c2ccc(O)cc2CCN1c1ccc(Cl)cc1 (stereo not given) measured for Estrogen receptor (Homo sapiens).
RESULT: 35

QUERY: Please tell me the measured IC50 for CN(C)c1cccc(N2CCc3cc(O)ccc3C2(C)c2ccc(OCCN3CCCC3)cc2)c1 (stereo not given) ; system: Estrogen receptor (Homo sapiens).
RESULT: 94

QUERY: Recall the reported IC50 of CC1(c2ccc(OCCN3CCCC3)cc2)c2ccc(O)cc2CCN1c1ccc(F)cc1 (stereo not given) when tested on Estrogen receptor (Homo sapiens).
RESULT: 31

QUERY: Please look at CC1(c2ccc(OCCN3CCCCCC3)cc2)c2ccc(O)cc2CCN1c1ccccc1 (stereo not given) and tell me its recorded IC50 on Estrogen receptor (Homo sapiens).
RESULT: 56
